measuredOn: AR (Homo sapiens, UniProt P10275)
Construct: expressed in transfected cells; host or cells: CV1 cells
Sequence (P10275 whole entry): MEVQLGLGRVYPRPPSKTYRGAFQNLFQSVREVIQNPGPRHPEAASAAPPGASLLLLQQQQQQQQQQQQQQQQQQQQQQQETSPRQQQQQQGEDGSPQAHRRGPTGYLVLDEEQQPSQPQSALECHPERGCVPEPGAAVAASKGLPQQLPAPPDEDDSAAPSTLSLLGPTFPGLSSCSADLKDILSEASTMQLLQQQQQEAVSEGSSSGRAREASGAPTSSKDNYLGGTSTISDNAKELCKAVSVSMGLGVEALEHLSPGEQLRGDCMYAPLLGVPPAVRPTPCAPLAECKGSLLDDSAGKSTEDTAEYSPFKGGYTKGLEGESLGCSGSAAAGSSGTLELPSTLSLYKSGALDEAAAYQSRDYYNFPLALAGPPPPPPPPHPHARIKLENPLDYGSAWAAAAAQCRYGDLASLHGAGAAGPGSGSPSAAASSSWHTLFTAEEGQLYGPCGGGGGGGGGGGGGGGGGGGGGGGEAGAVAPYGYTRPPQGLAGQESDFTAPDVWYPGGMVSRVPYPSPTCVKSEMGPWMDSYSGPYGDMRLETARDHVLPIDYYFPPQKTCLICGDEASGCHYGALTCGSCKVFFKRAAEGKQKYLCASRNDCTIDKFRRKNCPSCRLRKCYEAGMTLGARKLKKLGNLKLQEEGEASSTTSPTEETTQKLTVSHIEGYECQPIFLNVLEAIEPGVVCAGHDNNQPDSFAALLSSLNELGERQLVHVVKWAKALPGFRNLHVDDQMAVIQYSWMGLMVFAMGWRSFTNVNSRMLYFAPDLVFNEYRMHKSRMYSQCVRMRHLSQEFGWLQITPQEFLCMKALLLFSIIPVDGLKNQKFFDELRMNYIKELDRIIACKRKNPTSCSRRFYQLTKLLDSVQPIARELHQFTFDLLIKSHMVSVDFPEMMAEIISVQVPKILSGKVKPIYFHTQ
assayDetails: Reporter gene assay, AR transcriptional (MMTV-Luc) in CV1 cells
Type: cell-based
recordedConditions: pcDNA-AR + MMTV-Luc, 0.1 nM R1881 plus test compound, 24 hrs, read-out: B1 = AR transcriptional IC50 (μM) in CV1 cells
Method: Reporter Gene Assay (IC50 determination, Table 2, B1-B3). CV1 cells were seeded into 96-well cell culture plates and transfected with Lipofectin. For AR transcriptional assays, the DNA mixture consisted of pcDNA-AR, MMTV-Luc (androgen responsive reporter gene), and Renilla-Luc (for assessing transfection efficiency and toxicity). […] Cells were lysed and luciferase activity was quantified using Dual Luciferase Reagent (DLR). IC50 determination was assessed using GraphPad Prism software.
Rule: IC50 below 0.6 µM gives 1.0. Equal to or above 0.6 µM gives 0.0.

compound | measuredOn | classAssignment
CC1(C)CC(=O)C2=C(C1)Nc1ccc3cccnc3c1C2c1ccc(F)c(F)c1 (racemic) | AR (Homo sapiens, UniProt P10275) | 0.0
CC1(C)CC(=O)C2=C(C1)Nc1ccc3ncncc3c1C2c1ccc(Br)s1 (racemic) | AR (Homo sapiens, UniProt P10275) | 1.0
CC1(C)CC(=O)C2=C(C1)Oc1ccc3ccccc3c1C2c1ccc(F)c(F)c1 (racemic) | AR (Homo sapiens, UniProt P10275) | 1.0
CC1(C)CC(=O)C2=C(C1)Nc1ccc3ncccc3c1C2c1ccc2nonc2c1 (centres unmarked) | AR (Homo sapiens, UniProt P10275) | 0.0
CC1(C)CC2=C(C(c3ccc(F)c(F)c3)c3c(ccc4ncccc34)N2)S(=O)(=O)C1 (racemic) | AR (Homo sapiens, UniProt P10275) | 0.0
CC1(C)CC(=O)C2=C(C1)Nc1ccc3nccnc3c1C2c1ccc(F)c(F)c1 (racemic) | AR (Homo sapiens, UniProt P10275) | 0.0
Cc1ccsc1C1C2=C(CC(C)(C)CC2=O)Nc2cc(N3CCCC3)ccc21 (centres unmarked) | AR (Homo sapiens, UniProt P10275) | 0.0
O=C1C2=C(C(=O)c3ccccc31)C(c1ccc(F)c(F)c1)c1c(ccc3ncccc13)N2 (racemic) | AR (Homo sapiens, UniProt P10275) | 0.0
N#Cc1ccc(C2C3=C(CCCC3=O)Nc3ccc4ccccc4c32)cc1 (centres unmarked) | AR (Homo sapiens, UniProt P10275) | 0.0
C[n+]1cccc2c3c(ccc21)NC1=C(C(=O)CC(C)(C)C1)C3c1ccc(F)c(F)c1 (racemic) | AR (Homo sapiens, UniProt P10275) | 0.0

###

Test system: CV1 cells
assayDetails: Toxicity of test compound in the CV1 reporter gene assay (Renilla-Luc)
Type: cell-based
recordedConditions: 60 μM
Reported values of B3 = % Toxicity of test compound (60 μM) for individual entries

molecule | B3 = % Toxicity of test compound (60 μM), %
O=C1CCCC2=C1C(c1ccco1)c1c(ccc3ccccc13)N2 (stereo not shown) | 36
O=C1CCCC2=C1C(c1ccc([N+](=O)[O-])cc1)c1c(ccc3ncccc13)N2 (stereo not shown) | 22
O=C1CCCC2=C1C(c1ccc3c(c1)OCO3)c1c(ccc3ccccc13)N2 (stereo not shown) | 0
CC1CC(=O)C2=C(C1)Nc1ccc3ccccc3c1C2c1ccc(F)cc1 (stereo not shown) | 51
CC1(C)CC(=O)C2=C(C1)Nc1ccc3ccccc3c1C2c1cccc(C(F)(F)F)c1 (stereo not shown) | 0
CC1(C)CC(=O)C2=C(C1)Nc1ccc3ccccc3c1C2c1c[nH]c2ccccc12 (stereo not shown) | 0
O=[N+]([O-])c1ccc(C2C3=C(CCCC3)Nc3ccc4ccccc4c32)cc1 (stereo not shown) | 42
O=C1CCCC2=C1Nc1ccc3ccccc3c1C2c1ccc([N+](=O)[O-])cc1 (stereo not shown) | 88
Cc1n[nH]c2c1C(c1ccc([N+](=O)[O-])cc1)C1=C(N2)C(C)(C)CCC1=O (stereo not shown) | 0
CC1(C)CC(=O)C2=C(C1)Nc1ccc3ccccc3c1C2c1ccc(Cl)c([N+](=O)[O-])c1 (stereo not shown) | 0
CC1(C)CC(=O)C2=C(C1)Nc1ccc3ncccc3c1C2c1ccc([N+](=O)[O-])cc1 (stereo not shown) | 51
Cn1c(=O)n(C)c2cc(C3C4=C(CC(C)(C)CC4=O)Nc4ccc5ccccc5c43)ccc21 (stereo not shown) | 0
O=C1CCCC2=C1C(c1ccc(Cl)cc1Cl)c1c(ccc3ccccc13)N2 (stereo not shown) | 91
